Task for the reader: assign each of the following compounds its reported solubility (g/100 g solution).
Assay: xn = mol fraction of the nth substance listed, in the solute-free solvent
Details: 318.15 K; x2 = 0.4
One number for each entry.

Some compounds with known solubility (g/100 g solution) results, for comparison:
Compound: CCCCOc1ccc(C(=O)CCN2CCCCC2)cc1.Cl + CCO + O
Reported Property: solubility (g/100 g solution)
Readout Value: 59.4

Compound: CC(=O)OC(c1ccccc1)C(Cl)(Cl)Cl (configuration not stated) + CC(C)O + O
Reported Property: solubility (g/100 g solution)
Readout Value: 5.99

Compound: O=C(O)c1ccc(C(=O)O)o1 + O + COCCOC
Reported Property: solubility (g/100 g solution)
Readout Value: 5.24

Compound: CCCCOc1ccc(C(=O)CCN2CCCCC2)cc1.Cl + CCO + CCOC(C)=O
Reported Property: solubility (g/100 g solution)
Readout Value: 29.3

Compound: COC1=CC(=O)CC(C)C12Oc1c(Cl)c(OC)cc(OC)c1C2=O (configuration not stated) + CC(=O)CC(C)C + CC(C)O
Reported Property: solubility (g/100 g solution)
Readout Value: 1.27

Compound: CCCCOc1ccc(C(=O)CCN2CCCCC2)cc1.Cl + CO + C1CCOC1
Reported Property: solubility (g/100 g solution)
Readout Value: 35.4

Now for another entry.
stdin: Can you share its solubility (g/100 g solution)? I mean this compound: O=C(O)c1ccc(C(=O)O)o1 + C1CCOC1 + O
stdout: 7.91

###

Test: xn = mol fraction of the nth substance listed, in the solute-free solvent
Conditions: 318.15 K; x2 = 0.7
Reported Property: solubility (g/100 g solution)
Answers are plain numbers.

Some compounds with known solubility (g/100 g solution) results, for comparison:
Compound: CC(=O)OC(c1ccccc1)C(Cl)(Cl)Cl (centres undefined) + CC(=O)O + O
solubility (g/100 g solution): 12.5
//
Compound: CCCCOc1ccc(C(=O)CCN2CCCCC2)cc1.Cl + CO + C1CCOC1
solubility (g/100 g solution): 56.5
//
Compound: CCCCOc1ccc(C(=O)CCN2CCCCC2)cc1.Cl + CCO + CCOC(C)=O
solubility (g/100 g solution): 43.1

stdin: Can you share its solubility (g/100 g solution)? I mean this compound: CC(=O)OC(c1ccccc1)C(Cl)(Cl)Cl (centres undefined) + CCO + O
stdout: 9.86

###

Assay: xn = mol fraction of the nth substance listed, in the solute-free solvent
Settings: 293.15 K; x2 = 0.7
Label True when solubility (g/100 g solution) is at or above 4; otherwise label False.

Compound: O=C(O)C1CSCN1 (stereo unspecified) + O + CC#N
Group Label: False

Compound: CCCCOc1ccc(C(=O)CCN2CCCCC2)cc1.Cl + CCO + CCOC(C)=O
Group Label: True

Compound: CCCCOc1ccc(C(=O)CCN2CCCCC2)cc1.Cl + CCO + O
Group Label: True

Compound: COC1=CC(=O)CC(C)C12Oc1c(Cl)c(OC)cc(OC)c1C2=O (stereo unspecified) + CC(C)=O + CC(C)O
Group Label: False

Compound: COC1=CC(=O)CC(C)C12Oc1c(Cl)c(OC)cc(OC)c1C2=O (stereo unspecified) + CC(=O)CC(C)C + CC(C)O
Group Label: False

Okay, next one:
stdin: In plain terms: is recorded solubility (g/100 g solution) at least 4 for CC(=O)OC(c1ccccc1)C(Cl)(Cl)Cl (stereo unspecified) + CC(=O)O + O ?
stdout: False

Origin of the recorded values: the CheMixHub drug solubility set
